Tested on: SF-268
EXPERIMENT: In vitro cytostatic effect (SRB): SF-268, Cancer of the central nervous system
MEASUREMENT SETUP: read-out: LC50, 48-hour incubation
# CC50 annotations
REPORTED METRIC: CC50

INSERT INTO measurements (molecule, reported_metric, endpoint_result) VALUES
  ('CCCCCCCCCCCCCCCCCCOC(COP(=O)(O)OCC1OC(n2cc(F)c(=O)[nH]c2=O)CC1O)COP(=O)(O)OCC1OC(n2ccc(N)nc2=O)C(O)C1O (racemic)', 'CC50', '> 100 µM'),
  ('Nc1ccn(C2CCC(COP(=O)(O)OCC(O)COP(=O)(O)OCC3OC(n4cc(F)c(=O)[nH]c4=O)CC3O)O2)c(=O)n1 (racemic)', 'CC50', '> 100 µM');
